# TEST CONDITIONS: 293.15 K; 101.33 kPa; Liquid; Vibrating tube method
MEASUREMENT TYPE: mass density (kg/m3)
Give just the number in kg/m3; leave the unit off.

Give the measured mass density of O [water] .
998.4

Then CC(C)CCO [3-methylbutan-1-ol] ?
810.2

Then CCO [ethanol] ?
790

Then CC(C)CO [2-methyl-1-propanol] ?
802

====

Hi there, I'd appreciate the recorded refractive index for every entry that follows.
# PROCEDURE DETAILS: refractive index (Na D-line) (dimensionless)
# TEST CONDITIONS: 293.15 K; 101.33 kPa; Liquid; Standard Abbe refractometry
Form: value (number only, do not type unit).

Give the measured refractive index of O .
1.3328

Then CCO ?
1.3616

Then CC(C)CCO ?
1.413

Then CC(C)CO ?
1.3955
